system: UO-31 renal; assay: NCI-60 one-dose screen, 48 h; conditions: 10 µM unless noted
Compounds without any hit were thinned out: in the full panel of roughly 83,000, 20% have a hit. Calls of active or inactive are those of the source. Rule for the calls: active = growth percent below 10; inactive = the rest.
// allowed return values: Yes for active, No for inactive

Q: So what was the verdict on c1ccc(CNCCNCc2ccccc2)cc1 in this test?
A: No

Q: So what was the verdict on O=C(/C=C/c1ccccc1)c1ccccc1 in this test?
A: No

Q: So what was the verdict on N#CC(C#N)N=Nc1ccc(Cl)cc1 in this test?
A: No

Q: So what was the verdict on Nc1nc(N)c2[nH]cnc2n1 in this test?
A: No

Q: So what was the verdict on CCN(CCNS(C)(=O)=O)c1ccc(N)c(C)c1 in this test?
A: No

Q: So what was the verdict on CC(C)C(C)(C)c1ccc(O)cc1 in this test?
A: No

Q: So what was the verdict on NN1CCOC(c2ccccc2)C1 (stereo not drawn) in this test?
A: No

Q: So what was the verdict on Oc1ccc(Cc2ccccc2Cl)c(O)c1 in this test?
A: No

Q: So what was the verdict on O=C(O)CCCl in this test?
A: No

Q: So what was the verdict on Cc1cc(-c2cc(C)c(O)c(C)c2)cc(C)c1O in this test?
A: No

Q: So what was the verdict on CCOC(=O)c1c(C)cc(=O)oc1C in this test?
A: No

Q: So what was the verdict on CC1=C/C(O)CC(=O)Cc2nc(co2)C(=O)N2CCC=C2C(=O)OC(C(C)C)C(C)/C=C\C(=O)NC/C=C\1 (stereo not drawn) in this test?
A: No

Q: So what was the verdict on Cc1cc(-c2ccc(N=Nc3ccc4c(S(=O)(=O)O)cc(S(=O)(=O)O)c(N)c4c3O)c(C)c2)ccc1N=Nc1ccc2c(S(=O)(=O)O)cc(S(=O)(=O)O)c(N)c2c1O in this test?
A: No

Q: So what was the verdict on OC1COC(OCc2ccccc2)C(O)C1O (stereo not drawn) in this test?
A: No

Q: So what was the verdict on CC1CCC(C(C)C)C(NNC(N)=O)C1 (stereo not drawn) in this test?
A: No

Q: So what was the verdict on COc1ccc(N/C=C/C2=[N+](C)c3ccccc3C2(C)C)c(OC)c1 in this test?
A: No

Q: So what was the verdict on CC1CCC2(OC1)OC1CC3C4CC=C5CC(O)CCC5(C)C4CCC3(C)C1C2C (stereo not drawn) in this test?
A: No

Q: So what was the verdict on c1ccc(-c2nc3ccccc3s2)cc1 in this test?
A: No

Q: So what was the verdict on O=C1OC(c2ccccc2)=N/C1=C\c1ccccc1 in this test?
A: No

Q: So what was the verdict on CCCCCCCCCCCCCCCc1ccc(N)c(OC2OC(CO)C(O)C(O)C2O)c1 (stereo not drawn) in this test?
A: No

Q: So what was the verdict on Fc1ccc([I+]c2ccc(F)cc2)cc1 in this test?
A: No

Q: So what was the verdict on O=C(Cc1ccccc1)c1ccc(O)c(Cl)c1 in this test?
A: No

Q: So what was the verdict on O=[N+]([O-])c1cccc(SSc2cccc([N+](=O)[O-])c2)c1 in this test?
A: No

Q: So what was the verdict on COc1ccc2cc1Oc1ccc(cc1)C[C@H]1c3cc(c(OC)cc3CCN1C)Oc1c(OC)c(OC)cc3c1[C@H](C2)N(C)CC3 in this test?
A: Yes

Q: So what was the verdict on CC(C)NC(=O)N/C=C(\C#N)C(N)=O in this test?
A: No

Q: So what was the verdict on COc1ccc(C(=O)CC(c2ccccc2)C(C#N)c2ccccc2)cc1 (stereo not drawn) in this test?
A: No

Q: So what was the verdict on c1ccc2c(c1)OC1OC2Oc2ccccc21 in this test?
A: No

Q: So what was the verdict on COc1cc(C(O)C2C(=O)OCC2C2(c3ccc4c(c3)OCO4)SCCCS2)cc(OC)c1OC (stereo not drawn) in this test?
A: No

Q: So what was the verdict on OCCN1CCCCCCC1 in this test?
A: No

Q: So what was the verdict on CCc1cc(C)cc(O)c1 in this test?
A: No

Q: So what was the verdict on CCCCCCCCCCNC(=O)CI in this test?
A: Yes

Q: So what was the verdict on Brc1ccc(SSc2ccc(Br)cc2)cc1 in this test?
A: No

Q: So what was the verdict on ClCCOCCOc1ccc(C2CCCCC2)cc1 in this test?
A: No
